The reported numbers originate from patent US20250186597A1.

Biological target: T1, IL-18R on HEK-Blue IL18R reporter cells (InvivoGen, #hkb-hmi118) (UniProt Q13478 19-541; O95256 20-599, limits assumed)
T1 sequence (looked up) 1: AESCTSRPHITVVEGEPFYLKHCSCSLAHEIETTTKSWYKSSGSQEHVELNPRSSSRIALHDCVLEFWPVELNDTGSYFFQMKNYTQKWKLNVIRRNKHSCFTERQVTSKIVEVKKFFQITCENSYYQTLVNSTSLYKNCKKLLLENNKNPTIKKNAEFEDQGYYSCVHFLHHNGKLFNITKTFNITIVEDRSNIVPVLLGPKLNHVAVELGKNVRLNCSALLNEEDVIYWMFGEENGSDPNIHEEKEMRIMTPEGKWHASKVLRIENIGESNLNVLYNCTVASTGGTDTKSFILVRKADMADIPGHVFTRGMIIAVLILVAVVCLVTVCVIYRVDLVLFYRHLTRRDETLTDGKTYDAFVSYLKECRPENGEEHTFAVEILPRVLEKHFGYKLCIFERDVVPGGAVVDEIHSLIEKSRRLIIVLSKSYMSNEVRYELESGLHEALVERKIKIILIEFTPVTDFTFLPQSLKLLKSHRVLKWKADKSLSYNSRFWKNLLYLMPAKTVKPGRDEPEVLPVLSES
T1 sequence (looked up) 2: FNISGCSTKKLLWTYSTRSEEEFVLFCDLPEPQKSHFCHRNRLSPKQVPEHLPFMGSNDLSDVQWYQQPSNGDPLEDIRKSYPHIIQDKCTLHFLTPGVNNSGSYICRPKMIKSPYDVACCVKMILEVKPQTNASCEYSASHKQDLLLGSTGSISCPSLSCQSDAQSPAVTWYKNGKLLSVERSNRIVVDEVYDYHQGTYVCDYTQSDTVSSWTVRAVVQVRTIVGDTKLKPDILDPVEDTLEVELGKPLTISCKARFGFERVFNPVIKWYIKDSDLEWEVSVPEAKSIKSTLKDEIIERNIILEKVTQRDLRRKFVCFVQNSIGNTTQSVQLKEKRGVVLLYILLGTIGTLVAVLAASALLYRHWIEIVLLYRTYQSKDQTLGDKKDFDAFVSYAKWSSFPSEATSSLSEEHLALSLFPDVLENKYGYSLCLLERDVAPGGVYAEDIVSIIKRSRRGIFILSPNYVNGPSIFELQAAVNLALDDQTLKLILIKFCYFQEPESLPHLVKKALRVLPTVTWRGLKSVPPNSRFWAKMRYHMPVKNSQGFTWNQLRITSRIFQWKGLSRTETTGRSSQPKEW
Experiment: cell-based or functional assay
Reported Endpoint: EC50, HEK-Blue IL18R reporter assay (pM)
Give the value in pM but do not write pM after it.

Worked cases, answers included:
IL-18 polypeptide C156 (V11I, C38A, N41A, K53A, C76A, C127A) (ligand) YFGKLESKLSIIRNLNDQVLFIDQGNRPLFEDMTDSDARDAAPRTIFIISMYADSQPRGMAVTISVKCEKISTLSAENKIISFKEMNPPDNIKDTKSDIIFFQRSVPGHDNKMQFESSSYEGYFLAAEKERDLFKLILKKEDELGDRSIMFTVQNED
11.7
IL-18 polypeptide C148 (F2A, V11I, C38A, K53A, C76A, C127A) (ligand) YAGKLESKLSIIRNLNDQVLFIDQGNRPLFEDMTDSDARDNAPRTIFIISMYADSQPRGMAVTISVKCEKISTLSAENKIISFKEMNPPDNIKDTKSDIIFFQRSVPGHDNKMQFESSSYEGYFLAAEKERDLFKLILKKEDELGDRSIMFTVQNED
7.28
IL-18 polypeptide C178 (E6K, V11I, C38A, K53A, T63A, C76A, Q103R, C127A) (ligand) YFGKLKSKLSIIRNLNDQVLFIDQGNRPLFEDMTDSDARDNAPRTIFIISMYADSQPRGMAVAISVKCEKISTLSAENKIISFKEMNPPDNIKDTKSDIIFFRRSVPGHDNKMQFESSSYEGYFLAAEKERDLFKLILKKEDELGDRSIMFTVQNED
0.26
IL-18 polypeptide C162 (K8E, V11I, C38A, C76A, Q103R, C127A) (ligand) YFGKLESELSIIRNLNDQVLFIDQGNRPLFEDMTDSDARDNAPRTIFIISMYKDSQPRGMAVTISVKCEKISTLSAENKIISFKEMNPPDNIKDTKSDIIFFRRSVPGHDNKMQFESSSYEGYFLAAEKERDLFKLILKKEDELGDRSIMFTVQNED
2.3
IL-18 polypeptide C181 (E6K, V11I, C38A, K53A, T63A, C76A, C127A, V153E) (ligand) YFGKLKSKLSIIRNLNDQVLFIDQGNRPLFEDMTDSDARDNAPRTIFIISMYADSQPRGMAVAISVKCEKISTLSAENKIISFKEMNPPDNIKDTKSDIIFFQRSVPGHDNKMQFESSSYEGYFLAAEKERDLFKLILKKEDELGDRSIMFTEQNED
0.1
IL-18 polypeptide C182 (E6K, V11I, C38A, K53A, T63A, C76A, C127A, V153Y) (ligand) YFGKLKSKLSIIRNLNDQVLFIDQGNRPLFEDMTDSDARDNAPRTIFIISMYADSQPRGMAVAISVKCEKISTLSAENKIISFKEMNPPDNIKDTKSDIIFFQRSVPGHDNKMQFESSSYEGYFLAAEKERDLFKLILKKEDELGDRSIMFTYQNED
0.08

Turning now to a further binder:
// IL-18 polypeptide C192 (SEQ ID NO: 70; N-terminal G, E6K, V11I, C38A, M51G, K53A, T63A, C76A, C127A) (ligand) GYFGKLKSKLSIIRNLNDQVLFIDQGNRPLFEDMTDSDARDNAPRTIFIISGYADSQPRGMAVAISVKCEKISTLSAENKIISFKEMNPPDNIKDTKSDIIFFQRSVPGHDNKMQFESSSYEGYFLAAEKERDLFKLILKKEDELGDRSIMFTVQNED : EC50, HEK-Blue IL18R reporter assay value = 14
